target: HLA-A*02:01 (human); assay: radioligand competition, purified MHC
readout-name: pIC50
FYI, pIC50 means -log10 of a concentration in mol per litre.

Fill in: pIC50 of APRITFGGP (modifications not checked) [… (SEQ ID NO: 42)] is ___
6.05

Fill in: pIC50 of FASEAARVV (modifications not checked) [… (SEQ ID NO: 17)] is ___
6.31

// pIC50 lookup, key: KAFQLTPIAV (modifications not checked) [… (SEQ ID NO: 13)]
8.11

Could you share which pIC50 value was measured for DEFVVVTV (modifications not checked) [DEFVVVTV (SEQ ID NO: 11)] ?
4.89

All figures here come from patent US20220088180A1.
